- system: iC3b (UniProt P01024)
- test-details: binding screen of Example 5; method and unit not stated
Record form. Attribute: binding relative to negative control mIgG2. Fill in for each entry.
Give only the figure.

Query string: Indicate the recorded binding relative to negative control mIgG2 value for this binder: antibody 38F5 (antibody, V domains shown) VH: EVMLVESGGALVKPGGSLKLSCTASGFTFSNYAMSWVRQTPEKRLEWVAQTISSGGRYTYYPDSVKGRFTISRDNARNTLYLQMSSLRSEDTAMYYCVRRYYGNSYWYFDVWGAGTTVTVSS VL: DIVMTQSPSSLSVSAGEKVTMNCKSSQSLLNSGNQKHYLTWYQQKPGQPPKLLIYGASTRGSGVPDRFTGSGSGTDFTLTISSVQAEDLAVYYCQNDHSYPYTFGGGTKLEIK
Result string: 0.45

Query string: Answer with the recorded binding relative to negative control mIgG2 of antibody 3G8 (antibody, V domains shown) VH: EIQLQQSGAELVKPGASVKISCMASGYSFTGYNMNWVKQSHGKGLEWIGNINPYYDSTSYNQKFKGKATLTVDKSSSTAYMQLNSLTSEDSAVYYCARENYDFVGFAYWGQGTLVTVSA VL: QIVLSQSPAILSASPGEKVTMTCRASSSVSYMHWFQQKPGSSPKPWIYVTSNLASGVPPRFSGSGSGTSYSLTISRVEAEDAATYYCQQWSTNPLTFGAGTKLELK only.
Result string: 0.25

Query string: Please report the measured binding relative to negative control mIgG2 for antibody 38G10 (antibody, V domains shown) VH: EVQLQQSGPELVKPGDSVKMSCKASGYTFTDFYMDWVKQSHGKSLEWIGYIYPHNGGTTYNQNFTGKATLTVDKSSNTAYMELHSLTSEDSAVYYCARRGGFDFDYWGQGTTLTVSS VL: NIVMTQSPKSMSLSVGERVTLRCKASENVDTYVSWYQQKPEQSPKLLIYGASNRYTGVPDRFTGSGSATEFTLTISSVQAEDLVGYHCGQSHSYPLTFGAGTKLELK
Result string: 0.06
